Source of measurements: PubChem BioAssay AID1963973

Tested on: 883617-216-R-J1-PDC tumor spheroids, viability;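 also: spheroids exposed to agents for 7 days before the viability read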
ASSAY_TEXT: Anticancer human tumor 883617-216-R-J1-PDC patient-derived bladder carcinoma cell line growth inhibition [PI3K]
RUN_CONDITIONS: second compound 10 µM; first compound 0.316 µM; active compounds read low; spheroids with HUVEC and MSC
Description: Combinatorial screen of targeted agents with the PI3K inhibitors inavolisib, alpelisib, duvelisib, and copanlisib in multi-cell type tumor spheroids A high-throughput screen of multi-cell type tumor spheroids was designed to identify active combinations of targeted small molecules and PI3K pathway inhibitors. […] Compounds. […] If the clinical Cmax for an agent had not been determined, the highest concentration tested was 10 microM. […]
OBSERVATION_TYPE: viability, T/C (%)
Numbers only, in %.

Use the examples below as a reference point.
CNC(=O)c1ccc(N2C(=S)N(c3ccc(C#N)c(C(F)(F)F)c3)C(=O)C2(C)C)cc1F + Cc1nc(NC(=O)N2CCCC2C(N)=O)sc1-c1ccnc(C(C)(C)C(F)(F)F)c1 : 8.14
C#Cc1c(F)ccc2cc(O)cc(-c3ncc4c(N5CC6CCC(C5)N6)nc(OCC56CCCN5CC(F)C6)nc4c3F)c12 (stereo not given) + Cc1nc(NC(=O)N2CCCC2C(N)=O)sc1-c1ccnc(C(C)(C)C(F)(F)F)c1 : 5.56
CC(C)NCC(C(=O)N1CCN(c2ncnc3c2C(C)CC3O)CC1)c1ccc(Cl)cc1 (stereo not given) + CC(Nc1ncnc2nc[nH]c12)c1cc2cccc(Cl)c2c(=O)n1-c1ccccc1 : 38.7

Lab note: each molecule below needs its viability, T/C filled in.
1. CC1(C)CCC(CN2CCN(c3ccc(C(=O)NS(=O)(=O)c4ccc(NCC5CCOCC5)c([N+](=O)[O-])c4)c(Oc4cnc5[nH]ccc5c4)c3)CC2)=C(c2ccc(Cl)cc2)C1 + Cc1nc(NC(=O)N2CCCC2C(N)=O)sc1-c1ccnc(C(C)(C)C(F)(F)F)c1
2. CC(Cn1ccc(-c2ccc(C#N)c(Cl)c2)n1)NC(=O)c1cc(C(C)O)[nH]n1 (stereo not given) + CC(Nc1ncnc2nc[nH]c12)c1cc2cccc(Cl)c2c(=O)n1-c1ccccc1

Result:
7.45
44.6
